molecular target: Carbonate dehydratase (Sulfurihydrogenibium sp. (strain YO3AOP1), UniProt B2V8E3)
Sequence (B2V8E3 whole entry): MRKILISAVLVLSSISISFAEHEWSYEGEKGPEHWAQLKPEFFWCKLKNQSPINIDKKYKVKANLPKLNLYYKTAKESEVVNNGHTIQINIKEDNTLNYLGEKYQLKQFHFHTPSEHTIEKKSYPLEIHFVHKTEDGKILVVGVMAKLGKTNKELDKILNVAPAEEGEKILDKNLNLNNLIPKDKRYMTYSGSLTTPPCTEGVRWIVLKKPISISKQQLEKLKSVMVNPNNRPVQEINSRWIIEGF
Decide using Ki alone. Strictly below 70 nM: 1 (yes). Equal to or above 70 nM: 0 (no).

Examples with answers:
Cn1nc(S(N)(=O)=O)sc1=N: 0 (no)
Cc1ccc(S(N)(=O)=O)cc1 [P-TOLUENESULFONAMIDE]: 0 (no)
NS(=O)(=O)c1ccc(C(=O)O)cc1 [CARZENIDE]: 0 (no)
Nc1ccc(S(N)(=O)=O)cc1I: 1 (yes)
NNc1ccccc1S(N)(=O)=O: 0 (no)

Consider the record given below.
Answer whether the compound `Nc1ccc(S(=O)(=O)Nc2nnc(S(N)(=O)=O)s2)cc1` has Ki strictly less than 70 nM
1 (yes)

----------
biological target: UniProtKB Q31FD6
Reported Endpoint: Ki (nM)
Give bare numbers, in nM.

Below are worked cases with known answers.
NS(=O)(=O)c1nnc(NS(=O)(=O)c2ccccc2)s1 [BENZOLAMIDE]: 2.7
NS(=O)(=O)c1ccc(CO)cc1: 21.2
Cc1ccc(-c2cc(C(F)(F)F)nn2-c2ccc(S(N)(=O)=O)cc2)cc1: 981
Nc1ccc(S(N)(=O)=O)cc1F: 82.1
Nc1ccc(S(=O)(=O)Nc2nnc(S(N)(=O)=O)s2)cc1: 5.6
NCc1ccc(S(N)(=O)=O)cc1 [MAFENIDE]: 202

For each entry beneath this line, provide reported Ki.
1. NNc1ccccc1S(N)(=O)=O
2. NNc1ccc(S(N)(=O)=O)cc1
3. Nc1nnc(S(N)(=O)=O)s1
4. CC1(C)O[C@@H]2[C@@H](CO[C@@]3(COS(N)(=O)=O)OC(C)(C)O[C@@H]23)O1 [TOPIRAMATE]
5. Nc1ccc(S(N)(=O)=O)cc1Cl
6. NS(=O)(=O)c1ccc(C(=O)O)cc1 [CARZENIDE]
7. NS(=O)(=O)c1nc2ccc(O)cc2s1

71.4
84.5
27.9
769
79.7
85.2
40.7

For each entry beneath this line, provide reported Ki.
1. NS(=O)(=O)c1nnc(-c2ccccc2Cl)s1
2. NCCc1ccc(S(N)(=O)=O)cc1
3. NS(=O)(=O)c1ccc(CCO)cc1
4. CCOc1ccc2nc(S(N)(=O)=O)sc2c1 [ETHOXZOLAMIDE]

2.5
488
31.5
4.1

For each entry beneath this line, provide reported Ki.
1. Cn1nc(S(N)(=O)=O)sc1=N
2. Nc1ccc(S(=O)(=O)NCCc2ccc(S(N)(=O)=O)cc2)cc1
3. Nc1ccc(S(N)(=O)=O)cc1Br
4. O=C1NS(=O)(=O)c2ccccc21
5. Nc1ccc(S(=O)(=O)NCc2ccc(S(N)(=O)=O)cc2)cc1
6. Nc1cc(C(F)(F)F)c(S(N)(=O)=O)cc1S(N)(=O)=O

[4.8, 402, 545, 933, 454, 67.2]

For each entry beneath this line, provide reported Ki.
1. CCN[C@H]1CN(CCCOC)S(=O)(=O)c2sc(S(N)(=O)=O)cc21 [BRINZOLAMIDE]
2. Nc1nccc(Nc2ccc(S(N)(=O)=O)cc2)n1

1: 4.2; 2: 92.3

----------
Endpoint: pKi. System: Carbonate dehydratase (Sulfurihydrogenibium sp. (strain YO3AOP1)). Items follow.
One number for each entry, as −log10 of the molar value.

NS(=O)(=O)c1ccc(CO)cc1: 6.31
Cc1ccc(-c2cc(C(F)(F)F)nn2-c2ccc(S(N)(=O)=O)cc2)cc1 [CELECOXIB]: 8.16
Nc1ccc(S(=O)(=O)NCc2ccc(S(N)(=O)=O)cc2)cc1: 8.11

For each entry beneath this line, provide reported pKi.
1. CC1(C)O[C@@H]2[C@@H](CO[C@@]3(COS(N)(=O)=O)OC(C)(C)O[C@@H]23)O1 [TOPIRAMATE]
2. NCc1ccc(S(N)(=O)=O)cc1 [MAFENIDE]
3. NNc1ccc(S(N)(=O)=O)cc1
4. Nc1nccc(Nc2ccc(S(N)(=O)=O)cc2)n1
5. CCN[C@H]1CN(CCCOC)S(=O)(=O)c2sc(S(N)(=O)=O)cc21 [BRINZOLAMIDE]
6. Nc1ccc(S(=O)(=O)NCCc2ccc(S(N)(=O)=O)cc2)cc1

1. 8.18
2. 6.46
3. 6.10
4. 8.19
5. 7.91
6. 8.01

----------
target: Carbonate dehydratase (Sulfurihydrogenibium sp. (strain YO3AOP1))
Please provide measured Ki for the entries that follow.
One number for each entry, in nM.

Nc1ccc(S(N)(=O)=O)cc1 [SULFANILAMIDE]: 652
Nc1ccc(S(N)(=O)=O)cc1Cl: 41.2
NS(=O)(=O)c1nnc(-c2ccccc2Cl)s1: 70.1
Nc1ccc(S(N)(=O)=O)cc1Br: 75.7
NS(=O)(=O)c1ccc(CCO)cc1: 162

For each entry beneath this line, provide reported Ki.
1. O=C1NS(=O)(=O)c2ccccc21
2. Nc1nnc(S(N)(=O)=O)s1

1: 876; 2: 137

----------
Endpoint: pKi. System: Carbonic anhydrase, alpha family (Thiomicrospira crunogena). Items follow.
Sequence (Q31FD6 whole entry): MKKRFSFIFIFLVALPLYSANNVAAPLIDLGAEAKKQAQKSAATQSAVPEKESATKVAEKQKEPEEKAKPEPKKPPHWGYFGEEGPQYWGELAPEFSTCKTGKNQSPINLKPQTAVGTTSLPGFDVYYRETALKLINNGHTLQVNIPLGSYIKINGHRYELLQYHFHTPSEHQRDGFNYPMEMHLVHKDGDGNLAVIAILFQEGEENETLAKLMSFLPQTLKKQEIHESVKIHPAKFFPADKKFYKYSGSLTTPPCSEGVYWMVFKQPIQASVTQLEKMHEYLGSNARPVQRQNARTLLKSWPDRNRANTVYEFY
One number for each entry, as −log10 of the molar value.

For each entry beneath this line, provide reported pKi.
1. Nc1ccc(S(N)(=O)=O)cc1 [SULFANILAMIDE]
2. Nc1cc(Cl)c(S(N)(=O)=O)cc1S(N)(=O)=O
3. Cc1ccc(S(N)(=O)=O)cc1 [P-TOLUENESULFONAMIDE]

1: 6.20; 2: 7.26; 3: 6.61
